assay.notes: Particle size determination by Malvern laser particle size analyzer, wet method
Type: physicochemical
conditions.used: pulverized raw material; dispersant 0.5% aqueous Tween 80
Source text: The initial particle size D90 of the raw material nitroxoline or nitroxoline lysine salt was more than 100 μm. The raw material was pulverized with the mechanical mill to obtain the raw material having the particle size I, II, III or V in the following Table 1. The raw material was pulverized with the jet mill to obtain the raw material having the particle size IV in the following Table 1. […]
Mark fulfilled only when Particle size D50 stays strictly below 10 μm. Values equal to the cut-off are not fulfilled.

Example entries and their recorded answers appear below.
{"compound": "O=[N+]([O-])c1ccc(O)c2ncccc12 [II (Nitroxoline), Nitroxoline]", "discrete.label": "not fulfilled"}
{"compound": "O=[N+]([O-])c1ccc(O)c2ncccc12 [III (Nitroxoline), Nitroxoline]", "discrete.label": "not fulfilled"}
{"compound": "O=[N+]([O-])c1ccc(O)c2ncccc12 [IV (Nitroxoline), Nitroxoline]", "discrete.label": "fulfilled"}
{"compound": "O=[N+]([O-])c1ccc(O)c2ncccc12 [I (Nitroxoline), Nitroxoline]", "discrete.label": "not fulfilled"}

Switching to the query record.
Problem: Determine if NCCCC[C@H](N)C(=O)O.O=[N+]([O-])c1ccc(O)c2ncccc12 [V (Nitroxoline lysine salt), Nitroxoline lysine salt] shows Particle size D50 strictly lower than 10 μm.
Solution: not fulfilled

###

In this section we review reported Particle size D90 values for a set of compounds.
assay.notes: Particle size determination by Malvern laser particle size analyzer, wet method
Assay type: physicochemical
conditions.used: pulverized raw material; dispersant 0.5% aqueous Tween 80
From the text: The initial particle size D90 of the raw material nitroxoline or nitroxoline lysine salt was more than 100 μm. The raw material was pulverized with the mechanical mill to obtain the raw material having the particle size I, II, III or V in the following Table 1. The raw material was pulverized with the jet mill to obtain the raw material having the particle size IV in the following Table 1. […]
Kindly answer with a numeric value in μm, unit omitted.

Record excerpt, results attached:
{"compound": "O=[N+]([O-])c1ccc(O)c2ncccc12 [II (Nitroxoline), Nitroxoline]", "quantity.kind": "Particle size D90", "result.units": "μm", "data.value": 70.58}
{"compound": "O=[N+]([O-])c1ccc(O)c2ncccc12 [I (Nitroxoline), Nitroxoline]", "quantity.kind": "Particle size D90", "result.units": "μm", "data.value": 99.31}
{"compound": "O=[N+]([O-])c1ccc(O)c2ncccc12 [III (Nitroxoline), Nitroxoline]", "quantity.kind": "Particle size D90", "result.units": "μm", "data.value": 42.55}
{"compound": "O=[N+]([O-])c1ccc(O)c2ncccc12 [IV (Nitroxoline), Nitroxoline]", "quantity.kind": "Particle size D90", "result.units": "μm", "data.value": 12.61}

Next:
Problem: Record request: Particle size D90 value, item NCCCC[C@H](N)C(=O)O.O=[N+]([O-])c1ccc(O)c2ncccc12 [V (Nitroxoline lysine salt), Nitroxoline lysine salt]
Solution: 43.29

###

assay.notes: Particle size determination by Malvern laser particle size analyzer, wet method
Type: physicochemical
conditions.used: pulverized raw material; dispersant 0.5% aqueous Tween 80
quantity.kind: Particle size D10 (μm)
Kindly answer with a numeric value in μm, unit omitted.

{"molecule": "O=[N+]([O-])c1ccc(O)c2ncccc12 [III (Nitroxoline), Nitroxoline]", "quantity.kind": "Particle size D10", "result.units": "μm", "data.value": 3.44}
{"molecule": "O=[N+]([O-])c1ccc(O)c2ncccc12 [II (Nitroxoline), Nitroxoline]", "quantity.kind": "Particle size D10", "result.units": "μm", "data.value": 3.99}
{"molecule": "O=[N+]([O-])c1ccc(O)c2ncccc12 [IV (Nitroxoline), Nitroxoline]", "quantity.kind": "Particle size D10", "result.units": "μm", "data.value": 0.12}

Problem: Record request: Particle size D10 value, item NCCCC[C@H](N)C(=O)O.O=[N+]([O-])c1ccc(O)c2ncccc12 [V (Nitroxoline lysine salt), Nitroxoline lysine salt]
Solution: 3.67

Problem: Same question for O=[N+]([O-])c1ccc(O)c2ncccc12 [I (Nitroxoline), Nitroxoline] please.
Solution: 5.66
